Values compiled from BindingDB's records for doi:10.1074/jbc.M110.178376.

Notes on IC50 obtained with Beta-2-microglobulin (Homo sapiens, UniProt P61769).
endpoint: IC50 (µM)

Tell us which IC50 value is on record for C[C@H]1c2cccc(O)c2C(=O)C2C(=O)[C@]3(O)C(=O)C(C(N)=O)C(=O)[C@@H](N(C)C)[C@@H]3[C@@H](O)[C@@H]21 (some centres not stated)
47

[P] CN(C)[C@@H]1C(=O)C(C(=O)NCN2CCCC2)C(=O)[C@@]2(O)C(=O)C3C(=O)c4c(O)cccc4[C@@](C)(O)[C@H]3C[C@@H]12 (some centres not stated) [Rolitetracycline]
[Q] C=C1c2cccc(O)c2C(=O)C2C(=O)[C@]3(O)C(=O)C(C(N)=O)C(=O)[C@@H](N(C)C)[C@@H]3[C@@H](O)[C@H]12 (some centres not stated)
IC50 comparison. Which is larger, P or Q ? Label of pick, please.
P
